// provenance: patent US9850276B2

system: c-jun phosphorylation in H9C2 cardiomyocyte cells; assay: In-cell Western detection of c-Jun phosphorylation; format: cell-based; settings: H9c2 cells, n = 4; read-out: Cell-based p-c-Jun inhibition (IC50)
Quantity measured: IC50 (µM)
# unit: µM | format: bare number

# molecule CC(C)CN(CC(=O)NCCCCNC(=O)c1ccc(-c2n[nH]c3ccccc23)cc1)C(=O)c1ccc2c(c1)OCCO2 [Compound 10] ; its IC50 = 1.4

---

target: JNK3 39-422 (Homo sapiens)
Sequence (P53779 39-422 isoform P53779-2): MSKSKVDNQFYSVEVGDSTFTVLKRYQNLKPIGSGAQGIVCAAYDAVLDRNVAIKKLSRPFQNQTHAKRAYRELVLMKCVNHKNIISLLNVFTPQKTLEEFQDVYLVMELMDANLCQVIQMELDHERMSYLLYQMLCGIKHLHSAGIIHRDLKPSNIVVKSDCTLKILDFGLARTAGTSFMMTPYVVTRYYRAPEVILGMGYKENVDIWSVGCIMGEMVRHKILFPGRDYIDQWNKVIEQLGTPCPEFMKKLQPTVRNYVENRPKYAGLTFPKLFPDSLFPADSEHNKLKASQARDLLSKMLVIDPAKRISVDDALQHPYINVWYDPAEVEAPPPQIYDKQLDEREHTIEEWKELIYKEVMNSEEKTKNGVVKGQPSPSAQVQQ
Where a SMILES comes first, the peptide text is derived from it. The star is where a group is joined. X2 = O=C(NCCCN*)c1ccc(-c2n[nH]c3ccccc23)cc1
# pIC50 annotations
Give only the number. pIC50 is defined as minus log10 of concentration in molar units.

Example cases with answers are listed next.
Molecule	Observed value
CC(C)CN(CCCCCCNC(=O)c1ccc(-c2n[nH]c3ccccc23)cc1)C(=O)c1ccc2c(c1)OCCO2 [Compound 11]	6.11
COc1ccc2c(c1)CC(C(=O)N[C@@H](C)C(=O)N(CC(=O)NCCCCCCNC(=O)c1ccc(-c3n[nH]c4ccccc34)cc1)CC(C)C)CO2 (stereo partly drawn) [Compound 7]	5.98

# molecule CC(=O)N[C@@H](CC(C)C)C(=O)N[C@@H](CC(N)=O)C(=O)N[C@@H](CC(C)C)C(=O)NCC(=O)NCC(=O)NCCCNC(=O)c1ccc(-c2n[nH]c3ccccc23)cc1 [Compound 1] (Ac-LNLGG-X2) ; its pIC50 = 6.12

---

# log10(IC50) annotations
test system: c-jun phosphorylation in H9C2 cardiomyocyte cells; experiment: In-cell Western detection of c-Jun phosphorylation; format: cell-based; settings: Rattus norvegicus, H9c2, H9c2 cells, n = 4; read-out: Cell-based p-c-Jun inhibition (IC50)
Form field - Quantity: IC50; Unit: µM; Scale: log10

Molecule	System name	Quantity measured	Observed value
CC(C)CN(CC(=O)NCCCCNC(=O)c1ccc(-c2n[nH]c3ccccc23)cc1)CC(C)C	c-jun phosphorylation in H9C2 cardiomyocyte cells	log10(IC50)	0.98
CC(C)CN(CC(=O)NCCCCCCNC(=O)c1ccc(-c2n[nH]c3ccccc23)cc1)C(=O)CNC(=O)C1COc2ccccc2O1 (stereo not drawn)	c-jun phosphorylation in H9C2 cardiomyocyte cells	log10(IC50)	1.57
CC(C)CN(CC(=O)NCCCCNC(=O)c1ccc(-c2n[nH]c3ccccc23)cc1)C(=O)CNC(=O)c1cccc(Cl)c1	c-jun phosphorylation in H9C2 cardiomyocyte cells	log10(IC50)	1.30
COc1ccc2c(c1)CC(C(=O)N(CC(=O)NCCCCNC(=O)c1ccc(-c3n[nH]c4ccccc34)cc1)CC(C)C)CO2 (stereo not drawn)	c-jun phosphorylation in H9C2 cardiomyocyte cells	log10(IC50)	1.91

Now consider a different molecule.
# molecule COc1ccc2c(c1)CC(C(=O)NCC(=O)N(CC(=O)NCCCCCCNC(=O)c1ccc(-c3n[nH]c4ccccc34)cc1)CC(C)C)CO2 (stereo not drawn) ; its log10(IC50) = 0.45

---

Entries with their measured IC50, system JNK3 (Homo sapiens):
Where a SMILES comes first, the peptide text is derived from it. The star is where a group is joined. X1 = O=C(NCCCCN*)c1ccc(-c2n[nH]c3ccccc23)cc1; X2 = O=C(NCCCN*)c1ccc(-c2n[nH]c3ccccc23)cc1
# unit: nM | format: bare number

Example cases with answers are listed next.
Compound	Observed value
CC(C)CN(CC(=O)NCCCCNC(=O)c1ccc(-c2n[nH]c3ccccc23)cc1)CC(C)C	374
CC(C)C[C@H](NC(=O)[C@H](CC(N)=O)NC(=O)[C@@H](N)CC(C)C)C(=O)NCC(=O)NCC(=O)NCCCNC(=O)c1ccc(-c2n[nH]c3ccccc23)cc1 [Compound 2] (H-LNLGG-X2)	136
CC(C)CN(CC(=O)NCCCCNC(=O)c1ccc(-c2n[nH]c3ccccc23)cc1)C(=O)CNC(=O)c1cccc(Cl)c1	184
CC(C)CN(CC(=O)NCCCCCCNC(=O)c1ccc(-c2n[nH]c3ccccc23)cc1)C(=O)CNC(=O)C1COc2ccccc2O1 (stereo not shown)	63.4
CC(=O)N[C@@H](CC(C)C)C(=O)N[C@@H](CC(N)=O)C(=O)N[C@@H](CC(C)C)C(=O)NCC(=O)NCCCCNC(=O)c1ccc(-c2n[nH]c3ccccc23)cc1 [Compound 3] (Ac-LNLG-X1)	157

# compound "CC(C)CN(CCCCCCNC(=O)c1ccc(-c2n[nH]c3ccccc23)cc1)C(=O)c1ccc2c(c1)OCCO2" ; its IC50 = 86

# compound CC(=O)N[C@@H](CC(C)C)C(=O)N[C@@H](CC(N)=O)C(=O)N[C@@H](CC(C)C)C(=O)NCC(=O)NCC(=O)NCCCNC(=O)c1ccc(-c2n[nH]c3ccccc23)cc1 [Compound 1] (Ac-LNLGG-X2) ; its IC50 = 37.8

---

target: wild-type LRRK2 (Homo sapiens); assay: LRRK2 enzyme assay (titration); format: biochemical; conditions: LRRK2 form not stated; only hit in profiling against 18 kinases at 10 μM; read-out: LRRK2 IC50
Sequence (Q5S007 whole entry): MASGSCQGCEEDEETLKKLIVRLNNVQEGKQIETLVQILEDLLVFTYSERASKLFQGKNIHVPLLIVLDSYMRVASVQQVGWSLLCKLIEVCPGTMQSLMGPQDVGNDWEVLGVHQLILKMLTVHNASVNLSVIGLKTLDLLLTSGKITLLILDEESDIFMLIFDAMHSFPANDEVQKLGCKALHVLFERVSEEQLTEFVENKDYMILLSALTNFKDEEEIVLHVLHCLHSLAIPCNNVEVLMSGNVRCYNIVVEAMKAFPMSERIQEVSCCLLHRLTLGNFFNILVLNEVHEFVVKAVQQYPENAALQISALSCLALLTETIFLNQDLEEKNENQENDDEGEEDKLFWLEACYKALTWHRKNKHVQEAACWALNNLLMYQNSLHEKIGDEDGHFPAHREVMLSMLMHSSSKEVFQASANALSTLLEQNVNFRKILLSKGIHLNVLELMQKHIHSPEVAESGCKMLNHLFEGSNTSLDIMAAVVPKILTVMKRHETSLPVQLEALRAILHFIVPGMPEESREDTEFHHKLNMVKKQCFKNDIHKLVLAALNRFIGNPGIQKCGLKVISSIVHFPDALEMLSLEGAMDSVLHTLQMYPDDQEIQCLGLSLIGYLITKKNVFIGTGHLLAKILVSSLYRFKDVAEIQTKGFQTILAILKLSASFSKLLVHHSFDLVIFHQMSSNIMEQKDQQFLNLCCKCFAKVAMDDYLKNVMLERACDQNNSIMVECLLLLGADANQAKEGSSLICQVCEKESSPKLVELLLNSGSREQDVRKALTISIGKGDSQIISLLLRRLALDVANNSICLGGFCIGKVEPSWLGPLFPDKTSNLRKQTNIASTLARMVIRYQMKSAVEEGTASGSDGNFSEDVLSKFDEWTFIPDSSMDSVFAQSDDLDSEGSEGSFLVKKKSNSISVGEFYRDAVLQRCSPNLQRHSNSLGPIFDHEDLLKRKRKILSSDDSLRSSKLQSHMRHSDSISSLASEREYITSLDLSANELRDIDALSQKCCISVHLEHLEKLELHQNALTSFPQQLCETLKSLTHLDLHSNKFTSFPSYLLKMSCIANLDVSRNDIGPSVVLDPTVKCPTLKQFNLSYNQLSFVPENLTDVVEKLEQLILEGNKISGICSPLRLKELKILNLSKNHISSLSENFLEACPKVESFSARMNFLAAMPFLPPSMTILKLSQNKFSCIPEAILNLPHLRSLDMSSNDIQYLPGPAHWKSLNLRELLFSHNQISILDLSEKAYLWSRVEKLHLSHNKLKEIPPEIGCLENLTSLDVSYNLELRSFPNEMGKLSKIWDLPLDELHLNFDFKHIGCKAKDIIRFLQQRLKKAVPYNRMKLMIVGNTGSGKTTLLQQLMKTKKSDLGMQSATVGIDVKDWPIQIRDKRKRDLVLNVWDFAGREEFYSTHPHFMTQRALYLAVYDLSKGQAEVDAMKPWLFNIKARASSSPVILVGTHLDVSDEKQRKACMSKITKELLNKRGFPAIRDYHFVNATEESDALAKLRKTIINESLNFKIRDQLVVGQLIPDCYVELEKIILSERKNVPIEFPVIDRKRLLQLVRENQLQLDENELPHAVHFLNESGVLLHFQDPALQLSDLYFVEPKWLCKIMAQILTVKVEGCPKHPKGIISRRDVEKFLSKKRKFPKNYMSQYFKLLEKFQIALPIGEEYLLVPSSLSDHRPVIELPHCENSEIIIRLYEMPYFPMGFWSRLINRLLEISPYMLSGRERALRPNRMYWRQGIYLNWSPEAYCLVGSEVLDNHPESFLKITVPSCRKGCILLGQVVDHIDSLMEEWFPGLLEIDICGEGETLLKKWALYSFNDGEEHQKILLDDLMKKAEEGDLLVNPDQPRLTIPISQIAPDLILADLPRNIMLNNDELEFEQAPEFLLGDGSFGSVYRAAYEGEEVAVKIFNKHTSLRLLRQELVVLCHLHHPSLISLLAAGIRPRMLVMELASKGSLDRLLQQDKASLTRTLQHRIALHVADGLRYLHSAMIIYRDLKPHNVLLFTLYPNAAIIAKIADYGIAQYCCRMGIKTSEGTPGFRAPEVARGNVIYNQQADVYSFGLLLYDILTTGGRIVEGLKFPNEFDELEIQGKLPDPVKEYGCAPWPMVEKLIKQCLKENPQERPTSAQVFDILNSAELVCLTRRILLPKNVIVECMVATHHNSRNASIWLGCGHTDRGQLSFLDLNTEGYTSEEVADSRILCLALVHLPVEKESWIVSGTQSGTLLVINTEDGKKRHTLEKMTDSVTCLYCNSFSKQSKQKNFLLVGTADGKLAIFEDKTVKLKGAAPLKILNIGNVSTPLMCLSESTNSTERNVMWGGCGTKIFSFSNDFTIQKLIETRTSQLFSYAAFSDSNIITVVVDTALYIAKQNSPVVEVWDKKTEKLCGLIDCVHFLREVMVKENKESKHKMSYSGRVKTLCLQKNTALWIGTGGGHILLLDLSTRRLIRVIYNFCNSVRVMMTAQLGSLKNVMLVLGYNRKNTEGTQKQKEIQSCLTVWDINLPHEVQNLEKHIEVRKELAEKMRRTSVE
Quantity measured: pIC50
Give only the number. pIC50 is defined as minus log10 of concentration in molar units.

# compound CC(C)CN(CC(=O)NCCCCNC(=O)c1ccc(-c2n[nH]c3ccccc23)cc1)C(=O)c1ccc2c(c1)OCCO2 [Compound 10] ; its pIC50 = 7.10

---

target: JNK3 39-422 (Homo sapiens)
Where a SMILES comes first, the peptide text is derived from it. The star is where a group is joined. X1 = O=C(NCCCCN*)c1ccc(-c2n[nH]c3ccccc23)cc1; X2 = O=C(NCCCN*)c1ccc(-c2n[nH]c3ccccc23)cc1
Quantity measured: pIC50
Give only the number. pIC50 is defined as minus log10 of concentration in molar units.

Molecule	pIC50
CC(C)CN(CC(=O)NCCCCNC(=O)c1ccc(-c2n[nH]c3ccccc23)cc1)C(=O)c1ccc2c(c1)OCCO2 [Compound 10]	6.44
CC(C)C[C@H](NC(=O)[C@H](CC(N)=O)NC(=O)[C@@H](N)CC(C)C)C(=O)NCC(=O)NCC(=O)NCCCNC(=O)c1ccc(-c2n[nH]c3ccccc23)cc1 [Compound 2] (H-LNLGG-X2)	6.20
CC(C)CN(CC(=O)NCCCCNC(=O)c1ccc(-c2n[nH]c3ccccc23)cc1)C(=O)CNC(=O)c1cccc(Cl)c1 [Compound 12]	6.28

pIC50 on JNK3 39-422 (Homo sapiens) for CC(C)CN(CC(=O)NCCCCCCNC(=O)c1ccc(-c2n[nH]c3ccccc23)cc1)C(=O)CNC(=O)C1COc2ccccc2O1 (centres unmarked) [Compound 5] is 6.44

pIC50 on JNK3 39-422 (Homo sapiens) for CC(=O)N[C@@H](CC(C)C)C(=O)N[C@@H](CC(N)=O)C(=O)N[C@@H](CC(C)C)C(=O)NCC(=O)NCCCCNC(=O)c1ccc(-c2n[nH]c3ccccc23)cc1 [Compound 3] (Ac-LNLG-X1) is 6.21
